test: small-molecule microarray binders of probe aEGFR, primary screen, biochemical, biotinylated probe, 635/667 nm fluorescence (AID 1097); settings: higher = more signal;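 also: probe is a biotinylated anti-EGFR antibody binding compounds printed on slides; score combines fluorescence near 667 nm and signal to noise of each spot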
RECORDED_METRIC: composite z-score

compound=COc1ccc(C(=O)Nc2cccc(CN3C(=O)[C@]4(O[C@H](CC(=O)N5CCC[C@H]5CO)[C@@H]([Si](C)(C)c5ccc(OC)cc5)[C@@H]4C)c4ccccc43)c2)cc1 readout_value=-0.157
compound="O=C1C2C=CC(C(O)c3ccc(F)cc3)N(Nc3ccccc3)C2C(=O)N1c1ccccc1 (stereo unspecified)" readout_value=-0.0111
compound=COc1ccc([Si](C)(C)[C@H]2[C@H](CCn3cc([C@H](O)c4ccccc4)nn3)O[C@@]3(C(=O)N(Cc4cccc(N5CCC5=O)c4)c4ccccc43)[C@@H]2C)cc1 readout_value=-0.167
compound="COc1cccc(C(=O)O[C@H]2CC[C@]3(C)C4=C(CCC3C2(C)C)[C@]2(C)CC[C@H]([C@H](C)CCCC(C)C)[C@@]2(C)CC4)c1 (stereo partly specified)" readout_value=-0.0158
compound=CC(C)C(=C=CC[C@H](O)c1ccccc1OCCO)C[C@H](O)c1ccccn1 readout_value=0.151
compound=[N-]=[N+]=NCc1ccccc1C[C@]1(C(=O)O)N=C(c2ccc(OCCCO)cc2)O[C@H]1c1ccccc1 readout_value=-0.232
compound="CC=CC(O)C1C=CC2C(=O)N(c3ccccc3)C(=O)C2N1Nc1ccc(C(C)C)cc1 (stereo unspecified)" readout_value=0.14
compound=C[C@]1(C(=O)NCc2ccccc2)c2ccccc2C(=O)N(Cc2cc(F)cc(C(F)(F)F)c2)[C@H]1c1ccc(CO)cc1 readout_value=-0.253
compound="C=CCC(OC(C)=O)[C@@H]1[C@@H](N(Cc2ccc(-c3ccccc3)cc2)C(=O)Cc2ccc(F)cc2)c2cc(OCCCO)ccc2N1C(=O)c1ccc2ccccc2n1 (stereo partly specified)" readout_value=0.44
compound="O=C1OCCC/C=C\\[C@H]2OC34C=CCN(Cn5nnc6ccccc65)C(=O)[C@H]3N(CCCCCO)C(=O)[C@@H]4C12 (stereo partly specified)" readout_value=-0.174
compound=CCCN1C(=O)[C@]2(COC(c3ccc(OCCCO)cc3)=N2)Cc2ccccc21 readout_value=-0.0774
compound=C[C@]1(C(=O)NCc2ccccc2)c2ccccc2C(=O)N(Cc2ccc(OC(F)(F)F)cc2)[C@H]1c1ccc(CO)cc1 readout_value=-0.0689
compound=CCOC(=O)C[C@H]1[C@H](OC(=O)Cc2ccc3c(c2)OCO3)[C@@H](NC(=O)C2CCCCC2)c2cc(OCCCO)ccc2N1C(=O)Cc1ccc(OC)cc1 readout_value=-0.0234
compound="CCOC(=O)C1=CCC(c2ccc([N+](=O)[O-])cc2)N(S(=O)(=O)c2ccc(C)cc2)C1 (stereo unspecified)" readout_value=0.0296
compound=CCCCC=C[C@@H](NC(=O)c1ccco1)c1ccccc1 readout_value=0.0836
compound="CC(C)N1CC=CC23O[C@@H]4C=CCOC(=O)[C@@H]4[C@H]2C(=O)N(CCO)[C@@H]3C1=O (stereo partly specified)" readout_value=-0.287
